Test system: blackgrass
PROTOCOL_DESCRIPTION: Test B pre/postemergence blackgrass
Format: in vivo, Alopecurus myosuroides
STATED_CONDITIONS: Postemergence, Rate 125 g/ha; scale 0 to 10, 0 is no effect, 10 is complete control
Description: […] At the same time, these crop and weed species were also treated with postemergence applications of test chemicals formulated in the same manner. […] Treated plants and controls were maintained in a greenhouse for twelve to sixteen days, after which all species were compared to controls and visually evaluated. […]

COMPOUND	Plant response rating, Blackgrass
Cc1nc(Cl)sc1C(C)n1c(=O)on(C(=O)N(c2ccc(Cl)cc2)C(C)C)c1=O (stereo not shown) [Compound 406]	0
CC(C)N(C(=O)n1oc(=O)n(C2CCC2)c1=O)c1ccc(Cl)cc1 [Compound 349]	4
CC(C)N(C(=O)n1oc(=O)n(C2CCCCCC2)c1=O)c1ccc(Cl)cc1 [Compound 339]	0
CC(C)C(C)n1c(=O)on(C(=O)N(c2ccc(F)cc2F)C(C)C)c1=O (stereo not shown) [Compound 356]	6

----------
Tested on: giant foxtail
PROTOCOL_DESCRIPTION: Test B pre/postemergence giant foxtail
Assay type: in vivo, Setaria faberii
STATED_CONDITIONS: Preemergence, Rate 250 g/ha; scale of 0 to 10 where 0 is no effect and 10 is complete control
EXPERIMENTAL_ENDPOINT: Giant foxtail plant response rating

COMPOUND	OBSERVED_RESULT
CC(C)N(C(=O)n1oc(=O)n(C2CCCCO2)c1=O)c1ccc(F)cc1 (stereo not shown)	0
CC(C)N(C(=O)n1oc(=O)n(C2CCCCCC2)c1=O)c1ccc(Cl)cc1	9
CC(C)N(C(=O)n1oc(=O)n(CC#C[Si](C)(C)C)c1=O)c1ccc(F)cc1	4
CC(C)N(C(=O)n1oc(=O)n(CCC(F)=C(F)F)c1=O)c1ccc(F)cc1	10
Cc1ccccc1-n1c(=O)on(C(=O)N(c2ccc(F)cc2)C(C)C2CC2)c1=O (stereo not shown)	10
CC(C)=CCn1c(=O)on(C(=O)N(c2ccc(F)cc2)C(C)C)c1=O	10
C=C(Cn1c(=O)on(C(=O)N(c2ccc(F)cc2)C(C)C)c1=O)C[Si](C)(C)C	9
Cc1nsc(Cl)c1Cn1c(=O)on(C(=O)N(c2ccc(F)cc2)C(C)C)c1=O	10
CC(C)N(C(=O)n1oc(=O)n(C2CC2)c1=O)c1ccc(Cl)cc1	10
CC(C)N(C(=O)n1oc(=O)n(C2CCC2)c1=O)c1ccc(Cl)cc1	10

----------
Quick list: Plant response rating, Rape per entry.
Tested on: rape
PROTOCOL_DESCRIPTION: Test B pre/postemergence rape
Type: in vivo, Brassica napus
STATED_CONDITIONS: Rate 250 g/ha, Postemergence; scale of 0 to 10 where 0 is no effect and 10 is complete control

MOLECULE	Plant response rating, Rape
CCC(=O)Cn1c(=O)on(C(=O)N(c2ccc(Cl)cc2)C(C)C)c1=O [Compound 553]	7
CC(C)N(C(=O)n1oc(=O)n(CC2CC2)c1=O)c1ccccc1 [Compound 568]	2
C=CCn1c(=O)on(C(=O)N(c2ccc(F)cc2)C(C)C(=O)OCC)c1=O (stereo not shown) [Compound 279]	0
CCOCn1c(=O)on(C(=O)N(c2ccccc2)C(C)C)c1=O [Compound 563]	5

----------
Tested on: rape
PROTOCOL_DESCRIPTION: Test B pre/postemergence rape
Assay type: in vivo, Brassica napus
STATED_CONDITIONS: Rate 125 g/ha, Postemergence; scale 0 to 10
Quick list: Rape plant response rating per entry.

COMPOUND	Rape plant response rating
C=CCn1c(=O)on(C(=O)N(c2ccc(F)cc2)C2CCC2)c1=O [Compound 194]	0
CC(C)N(C(=O)n1oc(=O)n(CCC(F)=C(F)F)c1=O)c1ccc(F)cc1 [Compound 218]	1
CCC(CC)N(C(=O)n1oc(=O)n(-c2ccccc2C)c1=O)c1ccc(F)cc1 [Compound 193]	0
Cc1ccccc1-n1c(=O)on(C(=O)N(c2ccc(N(C)C)cc2)C(C)C)c1=O [Compound 237]	0

----------
Tested on: crabgrass
PROTOCOL_DESCRIPTION: Test B pre/postemergence crabgrass
Format: in vivo, Digitaria sanguinalis
STATED_CONDITIONS: Preemergence, Rate 62 g/ha; scale 0 to 10 (0 no effect, 10 complete control)

COMPOUND	TARGET_SYSTEM	Crabgrass plant response rating
CC(C)N(C(=O)n1oc(=O)n(CC2CC2)c1=O)c1ccccc1	crabgrass	7
CC(C)N(C(=O)n1oc(=O)n(CC2CCCCO2)c1=O)c1ccc(F)cc1 (stereo not drawn)	crabgrass	7
Cc1nn(C)c(C)c1-n1c(=O)on(C(=O)N(c2ccc(F)cc2)C(C)C)c1=O	crabgrass	3
CCN(C(=O)n1oc(=O)n(-c2c(C)cc(C)cc2C)c1=O)C1CCCCC1	crabgrass	0
CCC(=O)Cn1c(=O)on(C(=O)N(c2ccc(Cl)cc2)C(C)C)c1=O	crabgrass	10
CC(Cl)=CCn1c(=O)on(C(=O)N(c2ccccc2)C(C)C)c1=O	crabgrass	3
Cc1cnn(C)c1-n1c(=O)on(C(=O)N(c2ccc(F)cc2)C(C)C)c1=O	crabgrass	0
CCOC(Cn1c(=O)on(C(=O)N(c2ccccc2)C(C)C)c1=O)OCC	crabgrass	2
CCn1c(=O)on(C(=O)N(c2ccc(Cl)cc2)C(C)C)c1=O	crabgrass	7

----------
Tested on: duck salad
PROTOCOL_DESCRIPTION: Test B flood test duck salad
Assay type: in vivo, Heteranthera limosa
STATED_CONDITIONS: Postemergence, Rate 1000 g/ha; scale 0 to 10 (0 no effect, 10 complete control)
Quick list: Ducksalad plant response rating per entry.

COMPOUND	Ducksalad plant response rating
CC(C)N(C(=O)n1oc(=O)n(C2CCCCC2C(F)(F)F)c1=O)c1ccc(F)cc1 (stereo not shown)	3
CC(C)N(C(=O)n1oc(=O)n(-c2ccc(OC(F)(F)F)cc2)c1=O)C1=CCOCC1	0
CCN(CC)C(=O)n1oc(=O)n(-c2ccc(OC)cc2)c1=O	0
CC(C)N(C(=O)n1oc(=O)n(-c2cc(Cl)cc(Cl)c2)c1=O)C1=CCOCC1	0

----------
Tested on: wild oat
PROTOCOL_DESCRIPTION: Test E wild oat
Type: in vivo, Avena fatua
STATED_CONDITIONS: Preemergence; Rate 1000 g/ha; 0 to 100 scale where 0 is no effect and 100 is complete control
Quick list: Plant response rating, Wild oat per entry.
EXPERIMENTAL_ENDPOINT: Plant response rating, Wild oat

Cc1ccccc1-n1c(=O)on(C(=O)N(c2ccc(F)cc2)C(C)C)c1=O 50
CC(C)N(C(=O)n1oc(=O)n(Cc2ccco2)c1=O)c1ccc(F)cc1 70
CC(C)N(C(=O)n1oc(=O)n(CC(F)(F)F)c1=O)c1ccc(F)cc1 70
Cc1cccc(C)c1-n1c(=O)on(C(=O)N(c2ccccc2)C(C)C)c1=O 70

----------
System: rape
PROTOCOL_DESCRIPTION: Test B pre/postemergence rape
Type: in vivo, Brassica napus
STATED_CONDITIONS: Preemergence, Rate 250 g/ha; scale of 0 to 10 where 0 is no effect and 10 is complete control
Quick list: Rape plant response rating per entry.

MOLECULE	TARGET_SYSTEM	Rape plant response rating
CC(C)N(C(=O)n1oc(=O)n(C2CCC2)c1=O)c1ccccc1 [Compound 348]	rape	2
CC(C)=CCn1c(=O)on(C(=O)N(c2ccc(F)cc2)C(C)C)c1=O [Compound 288]	rape	0
CCN(CC)C(=O)n1oc(=O)n(C2CC2)c1=O [Compound 297]	rape	0
CCCCn1c(=O)on(C(=O)N(c2ccc(F)cc2)C(C)C)c1=O [Compound 221]	rape	8
CC(C)N(C(=O)n1oc(=O)n(C2CCCC2)c1=O)c1ccc(F)cc1F [Compound 284]	rape	7
CC(C)N(C(=O)n1oc(=O)n(CC#C[Si](C)(C)C)c1=O)c1ccc(F)cc1 [Compound 213]	rape	0
CC(C)N(C(=O)n1oc(=O)n(CC(=O)OC(C)(C)C)c1=O)c1ccc(F)cc1 [Compound 265]	rape	0
Cc1cccc(C)c1-n1c(=O)on(C(=O)N(c2ccc(Cl)cc2Cl)C2CCC2)c1=O [Compound 318]	rape	0
C=C(Cn1c(=O)on(C(=O)N(c2ccc(F)cc2)C(C)C)c1=O)C[Si](C)(C)C [Compound 256]	rape	0
CC(C)N(C(=O)n1oc(=O)n(CCCN(C)C)c1=O)c1ccc(F)cc1 [Compound 323]	rape	0
CC(C)N(C(=O)n1oc(=O)n(CC2CC2)c1=O)c1ccc(F)cc1 [Compound 251]	rape	9

----------
System: surinam grass
PROTOCOL_DESCRIPTION: Test B pre/postemergence surinam grass
Assay type: in vivo, Brachiaria decumbens
STATED_CONDITIONS: Rate 500 g/ha, Postemergence; scale 0 to 10, 0 no effect, 10 complete control
EXPERIMENTAL_ENDPOINT: B. signalgrass plant response rating

MOLECULE	EXPERIMENTAL_ENDPOINT	OBSERVED_RESULT
CCCCCC#CCn1c(=O)on(C(=O)N(c2ccc(F)cc2)C(C)C)c1=O [Compound 254]	B. signalgrass plant response rating	0
COc1nc(OC)nc(N(C(=O)n2oc(=O)n(C(C)C)c2=O)C(C)C)n1 [Compound 182]	B. signalgrass plant response rating	0
C=CCn1c(=O)on(C(=O)N(c2ccc(F)cc2)C(C)C(=O)OCC)c1=O (stereo not shown) [Compound 279]	B. signalgrass plant response rating	0
C=CCn1c(=O)on(C(=O)N(c2ccc(F)cc2)C2CCC2)c1=O [Compound 194]	B. signalgrass plant response rating	3
Cc1ccccc1-n1c(=O)on(C(=O)N(c2ccc(F)cc2)C(C)C2CC2)c1=O (stereo not shown) [Compound 240]	B. signalgrass plant response rating	0
CC(C)N(C(=O)n1oc(=O)n(CCC(F)=C(F)F)c1=O)c1ccc(F)cc1 [Compound 218]	B. signalgrass plant response rating	7
Cc1ccccc1-n1c(=O)on(C(=O)N(c2ccc(C(C)(C)C)cc2)C(C)C)c1=O [Compound 270]	B. signalgrass plant response rating	0
Cc1ccccc1-n1c(=O)on(C(=O)N(c2ccc(N(C)C)cc2)C(C)C)c1=O [Compound 237]	B. signalgrass plant response rating	0
CC(C)N(C(=O)n1oc(=O)n(CC(=O)OC(C)(C)C)c1=O)c1ccc(F)cc1 [Compound 265]	B. signalgrass plant response rating	0
CCN(CC)C(=O)n1oc(=O)n(C2CC2)c1=O [Compound 297]	B. signalgrass plant response rating	0
